percentage of EdU-negative overview
system: MCF7; test: percentage of EdU-negative (G0-arrested) nuclei per well, 72 h; higher = more G0 arrest; details: protein concentration 0.225 µM; reference: sequence is the full UniProt precursor, the tested protein was the secreted form or ectodomain;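 further: secreted proteins added to cultured cells, EdU pulse at the end, nuclei found by Hoechst imaging, EdU status from nuclear versus surrounding ring intensity ratio, PBS as neutral control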
OUTCOME MEASURE: percentage of EdU-negative (%)

MALSWVLTVLSLLPLLEAQIPLCANLVPVPITNATLDRITGKWFYIASAFRNEEYNKSVQEIQATFFYFTPNKTEDTIFLREYQTRQNQCFYNSSYLNVQRENGTVSRYEGGREHVAHLLFLRDTKTLMFGSYLDDEKNWGLSFYADKPETTKEQLGEFYEALDCLCIPRSDVMYTDWKKDKCEPLEKQHEKERKQEEGES; 25.1
MRAPHLHLSAASGARALAKLLPLLMAQLWAAEAALLPQNDTRLDPEAYGSPCARGSQPWQVSLFNGLSFHCAGVLVDQSWVLTAAHCGNKPLWARVGDDHLLLLQGEQLRRTTRSVVHPKYHQGSGPILPRRTDEHDLMLLKLARPVVLGPRVRALQLPYRCAQPGDQCQVAGWGTTAARRVKYNKGLTCSSITILSPKECEVFYPGVVTNNMICAGLDRGQDPCQSDSGGPLVCDETLQGILSWGVYPCGSAQHPAVYTQICKYMSWINKVIRSN; 26.9
MRPLLVLLLLGLAAGSPPLDDNKIPSLCPGHPGLPGTPGHHGSQGLPGRDGRDGRDGAPGAPGEKGEGGRPGLPGPRGDPGPRGEAGPAGPTGPAGECSVPPRSAFSAKRSESRVPPPSDAPLPFDRVLVNEQGHYDAVTGKFTCQVPGVYYFAVHATVYRASLQFDLVKNGESIASFFQFFGGWPKPASLSGGAMVRLEPEDQVWVQVGVGDYIGIYASIKTDSTFSGFLVYSDWHSSPVFA [Q9BXJ0]; 24.3
MLSGRLVLGLVSMAGRVCLCQGSAGSGAIGPVEAAIRTKLEEALSPEVLELRNESGGHAVPPGSETHFRVAVVSSRFEGLSPLQRHRLVHAALAEELGGPVHALAIQARTPAQWRENSQLDTSPPCLGGNKKTLGTP [Q9Y3E2]; 27.3
MDPQCTMGLSNILFVMAFLLSGAAPLKIQAYFNETADLPCQFANSQNQSLSELVVFWQDQENLVLNEVYLGKEKFDSVHSKYMGRTSFDSDSWTLRLHNLQIKDKGLYQCIIHHKKPTGMIRIHQMNSELSVLANFSQPEIVPISNITENVYINLTCSSIHGYPEPKKMSVLLRTKNSTIEYDGVMQKSQDNVTELYDVSISLSVSFPDVTSNMTIFCILETDKTRLLSSPFSIELEDPQPPPDHIPWITAVLPTVIICVMVFCLILWKWKKKKRPRNSYKCGTNTMEREESEQTKKREKIHIPERSDEAQRVFKSSKTSSCDKSDTCF; 25.9
MGTKAQVERKLLCLFILAILLCSLALGSVTVHSSEPEVRIPENNPVKLSCAYSGFSSPRVEWKFDQGDTTRLVCYNNKITASYEDRVTFLPTGITFKSVTREDTGTYTCMVSEEGGNSYGEVKVKLIVLVPPSKPTVNIPSSATIGNRAVLTCSEQDGSPPSEYTWFKDGIVMPTNPKSTRAFSNSSYVLNPTTGELVFDPLSASDTGEYSCEARNGYGTPMTSNAVRMEAVERNVGVIVAAVLVTLILLGILVFGIWFAYSRGHFDRTKKGTSSKKVIYSQPSARSEGEFKQTSSFLV [Q9Y624]; 25.6
MGPISAPSCRWRIPWQGLLLTASLFTFWNPPTTAQLTIEAVPSNAAEGKEVLLLVHNLPQDPRGYNWYKGETVDANRRIIGYVISNQQITPGPAYSNRETIYPNASLLMRNVTRNDTGSYTLQVIKLNLMSEEVTGQFSVHPETPKPSISSNNSNPVEDKDAVAFTCEPETQNTTYLWWVNGQSLPVSPRLQLSNGNRTLTLLSVTRNDVGPYECEIQNPASANFSDPVTLNVLYGPDAPTISPSDTYYHAGVNLNLSCHAASNPPSQYSWSVNGTFQQYTQKLFIPNITTKNSGSYACHTTNSATGRNRTTVRMITVSDALVQGSSPGLSARATVSIMIGVLARVALI; 27.4
MALTAHPSCLLALLVAGLAQGIRGPLRAQDLGPQPLELKEAFKLFQIQFNRSYLSPEEHAHRLDIFAHNLAQAQRLQEEDLGTAEFGVTPFSDLTEEEFGQLYGYRRAAGGVPSMGREIRSEEPEESVPFSCDWRKVASAISPIKDQKNCNCCWAMAAAGNIETLWRISFWDFVDVSVQELLDCGRCGDGCHGGFVWDAFITVLNNSGLASEKDYPFQGKVRAHRCHPKKYQKVAWIQDFIMLQNNEHRIAQYLATYGPITVTINMKPLQLYRKGVIKATPTTCDPQLVDHSVLLVGFGSVKSEEGIWAETVSSQSQPQPPHPTPYWILKNSWGAQWGEKGYFRLHRGSNTCGITKFPLTARVQKPDMKPRVSCPP; 32.1

Measured values drawn from the supplement of paper PMC11316812 for this set.
